- target_or_system: prototypic SARS-CoV-2 spike protein (Severe acute respiratory syndrome coronavirus 2, UniProt P0DTC2, K986P/R682S/R683G/R685G/V987P)
- test_description: biochemical
- Type: binding
If the reported Response at 50 μM (%) equals or exceeds 10, assign label 1. If not, assign label 0.

{"molecule": "CCN(CC)c1ccc(/C=N/c2ccc(S(N)(=O)=O)cc2)cc1 [2166-0281]", "qualitative_label": "label 1"}
{"molecule": "NCc1cncc(-c2ccccc2)c1 [F1905-6556]", "qualitative_label": "label 1"}
{"molecule": "COc1ccccc1-c1cc2c(=O)n(Cc3nc(-c4ccccn4)no3)ccn2n1 [F3382-3571]", "qualitative_label": "label 0"}
{"molecule": "CN(CCCO)C(=O)c1coc(COc2cccc(F)c2F)n1 [compound 11547730]", "qualitative_label": "label 1"}

Dear colleague, could you confirm whether O=C(Oc1ccc(OC(=O)c2c(Cl)nsc2Cl)cc1)c1c(Cl)nsc1Cl [8002-0592] has Response at 50 μM (%) at or above 10?
label 1

Continue with COc1cccc(-c2ncc(CNC(=O)CC3NC(=O)NC3=O)s2)c1 (stereo not drawn) [compound 42995570]
label 1

###

- target_or_system: prototypic SARS-CoV-2 spike protein (Severe acute respiratory syndrome coronavirus 2, UniProt P0DTC2, K986P/R682S/R683G/R685G/V987P)
- test_description: biochemical
- Type: binding
quantity: Response at 50 μM (%)
Only the number, expressed in %, is required.

{"compound": "Cn1c(SCc2nc(-c3ccccc3Cl)no2)nnc1-c1ccccc1F [SPC-3]", "Response at 50 μM (%)": 51.8}
{"compound": "CCCCCCCCOc1ccc(OC(=O)c2ccco2)cc1 [0606-5952]", "Response at 50 μM (%)": 24.2}
{"compound": "CC(=O)Nc1ccc(Oc2ccc3c(c2)C(=O)N(c2cccc(C)c2)C3=O)cc1 [0584-0466]", "Response at 50 μM (%)": 21.5}
{"compound": "Cn1c(SCc2nc(-c3ccccc3)no2)nnc1-c1ccco1 [STL416744]", "Response at 50 μM (%)": 30.3}
{"compound": "CN(CCc1cnn(C)c1)C(=O)c1ccc(-c2ccccc2Cl)o1 [SPC-4]", "Response at 50 μM (%)": 30.4}

# get_value(readout='Response at 50 μM (%)', item= COc1cccc(-c2noc(CCC(=O)Nc3cccnc3)n2)c1 [SPC-6] )
35.9

Continue with CSc1nc(N)n2nc(C(C)(C)C)cc2n1 [compound 6536]
23.3

###

- target_or_system: prototypic SARS-CoV-2 spike protein (Severe acute respiratory syndrome coronavirus 2, UniProt P0DTC2, K986P/R682S/R683G/R685G/V987P)
- test_description: biochemical
- Type: binding
Parameter Response at 50 μM (%): see the listing below.
Only the number, expressed in %, is required.

Examples with their reported Response at 50 μM (%) follow.
{"structure_notation": "CCCCCC(=O)Oc1ccc(/N=N/c2ccc(C#N)cc2)cc1", "Response at 50 μM (%)": 23.5}
{"structure_notation": "Cc1nc(C(F)(F)F)ccc1-c1nnc(SCc2ccc(OC(F)(F)F)cc2)o1", "Response at 50 μM (%)": 26.3}
{"structure_notation": "Cn1c(CSc2nc3ccccc3s2)nnc1SCC(=O)NCCO", "Response at 50 μM (%)": 25.5}
{"structure_notation": "O=C(CCn1ccc(=O)[nH]c1=O)N1CC(c2nc(-c3cccc(Cl)c3)no2)C1", "Response at 50 μM (%)": 22.3}

Alright, here's another compound for you.
# get_value(readout='Response at 50 μM (%)', item= COc1ccc(-c2nnc(SCc3nc(-c4ccco4)no3)o2)cc1 )
21.2

###

- target_or_system: prototypic SARS-CoV-2 spike protein (Severe acute respiratory syndrome coronavirus 2, UniProt P0DTC2, K986P/R682S/R683G/R685G/V987P)
- test_description: biochemical
- Format: binding
Response at 50 μM (%) strictly less than 40% = Yes. Otherwise No.

{"compound": "O=C(CCn1ccc(=O)[nH]c1=O)OCc1cc(-c2ccco2)on1 [F2496-3133]", "qualitative_label": "Yes"}
{"compound": "O=S(=O)(NCC#CCOc1cccc(C(F)(F)F)c1)c1cccs1 [F6412-1980]", "qualitative_label": "Yes"}
{"compound": "COc1cccc(C(=O)COC(=O)c2ccc(O)cc2O)c1 [SPC-1]", "qualitative_label": "No"}
{"compound": "COc1ccc(-c2noc(CSc3nnc(-c4ccccc4)n3C)n2)cc1 [SPC-5]", "qualitative_label": "No"}

is_below(Response at 50 μM (%), 40%) for COC(=O)c1ccc2c(c1)C(=O)/C(=C/c1ccc(-c3cccc(C(F)(F)F)c3)o1)O2 [C711-0480] ?
Yes

###

Parameter Response at 50 μM (%): see the listing below.
- target_or_system: prototypic SARS-CoV-2 spike protein (Severe acute respiratory syndrome coronavirus 2, UniProt P0DTC2, K986P/R682S/R683G/R685G/V987P)
- test_description: biochemical
- Assay type: binding
Could you keep your reply to the number by itself?

{"structure_notation": "O=C(CSc1ccncc1)OCc1cc(-c2ccccc2F)on1", "Response at 50 μM (%)": 14}

# get_value(readout='Response at 50 μM (%)', item= Cc1ccc(-c2nc(CSc3nnc(-c4ccco4)o3)no2)cc1 )
2.9

Continue with CC(=O)n1ccc2ccc(C(=O)CSc3nnc(-c4cccnc4)n3C)cc21
13.8

Continue with O=C(COc1ccc(-c2cnc3ccccc3n2)cc1)c1cccs1
11.9
